# test_description: qHTS of TDP-43 Inhibitors; also: nearly all actives have a fitted effect of over 50% in size; also: potency is read from the fitted curve at half-maximal effect
# condition_parameters: TDP-43 expressing yeast growth rescue, BacTiter-Glo, 24 h; series mostly up to 46.1 µM
Hit rate of the full screen: of about 410,000 compounds, about 7,200 (1.8%) were called active. Another 7% or so got no clear call; they are omitted. Many of the other results were omitted from the sample, so actives are more common in it than they were.
measured_metric: Potency

[[record]]
compound = "CC1Cc2ccccc2N1C(=O)CSc1nc2ccccc2o1 (stereo unspecified)"
experimental_value = "12.6 µM (active)"

[[record]]
compound = "COc1ccc(C2CC(c3cccs3)=Nc3ccccc3S2)cc1OC (stereo unspecified)"
experimental_value = "inactive"

[[record]]
compound = "COc1cccc(N2CCN(C3CC(=O)N(c4ccc(Cl)cc4)C3=O)CC2)c1 (stereo unspecified)"
experimental_value = "inactive"

[[record]]
compound = "COc1cccc(N2C(=O)CC(N3CCN(S(=O)(=O)c4ccccc4)CC3)C2=O)c1 (stereo unspecified)"
experimental_value = "inactive"

[[record]]
compound = "CN(C(=O)CSc1nc2ccc(NC(=O)COc3ccccc3)cc2s1)c1ccccc1"
experimental_value = "inactive"

[[record]]
compound = "CCN(CCCNC(=O)Cn1ncc2c3ccccc3n(C)c2c1=O)Cc1ccccc1"
experimental_value = "inactive"

[[record]]
compound = "O=C(CSc1nc(Nc2ccc(F)c(F)c2)c2ccccc2n1)c1ccc(Cl)cc1"
experimental_value = "inactive"

[[record]]
compound = "COc1ccc(CNC(=O)COCc2cc(-c3cccs3)on2)cc1OC"
experimental_value = "inactive"


Fill in: Potency of O=C(Cc1ccc(Cl)cc1)Nc1ccc2nn(-c3ccc(Cl)cc3)nc2c1 is ___
inactive

Look at this compound and give its reported Potency. CCCN(CCC)CCCNC(=O)Cn1cc2c(n1)-c1c(oc(C(=O)N3CCCC3)c1C)CC2
inactive

Given CCc1ccc(NC(=O)CCS(=O)(=O)c2cc3c(cc2Cl)NC(=O)CO3)cc1 , state its recorded Potency.
inactive

Tell me the measured Potency of CCN(CC)S(=O)(=O)c1ccc2c(c1)N(CC(=O)NCc1ccccc1)C(=O)CS2 , please.
inactive

Entry Cc1ccc(N(CC(=O)NCc2ccc(Cl)cc2)S(=O)(=O)N(C)C)cc1 : reported Potency = ?
inactive

Which value of Potency has been reported for O=C(Nc1ccccc1N1CCCC1)c1ccc(F)c(S(=O)(=O)N2CCOCC2)c1 in the records?
inactive

What value of Potency has been reported for the following compound? Cc1nc(-c2ccc(F)cc2)c(CC(=O)Nc2cc(S(=O)(=O)N3CCCCC3)ccc2C)s1
inactive

Quick check: Potency of O=C(Nc1ccccc1N1CCCCC1)c1cccc(F)c1 ?
12.6 µM (active)

Reported Potency, compound O=C(Cn1nc(Cc2cccnc2)c2ccccc2c1=O)N1CCN(c2ccccc2F)CC1 : ____
inactive

Request the reported Potency associated with CC(=O)Nc1ccc2nc(SCCOc3cc(C)cc(C)c3)sc2c1
inactive

Which Potency value belongs to Cc1cccn2c(=O)c3cc(C(=O)NC(C)c4ccccc4)c(=N)n(CCCO)c3nc12 (stereo unspecified) ?
inactive

Consider the compound shown here: Cc1ccc(S(=O)(=O)N2CCN(C(=O)Cc3sc(C)nc3-c3ccc(F)cc3)CC2)c(C)c1 What is its recorded Potency?
35.5 µM (active)

# query: Potency of entry O=C(O)c1ccccc1CSc1nc2ccccc2s1
12.6 µM (active)

From: PubChem BioAssay AID652104
